These measurements were taken from the supplement of paper PMC10307832.

test system: 201T; test: relative viability (nuclei count vs DMSO), 5 days (fraction); higher = more cells survive; conditions: first compound 8 µM
Parameter: relative viability. Scope: all listed entries.
Quantity name: relative viability

# Compound, Quantity name, Assay result
rows = [
    ("O=c1[nH]c2ccccc2n1C1CCN(CCCC(c2ccc(F)cc2)c2ccc(F)cc2)CC1 [Pimozide] + COc1cc2c(Oc3ccc(NC(=O)C4(C(=O)Nc5ccc(F)cc5)CC4)cc3F)ccnc2cc1OCCCN1CCOCC1 [Foretinib] (partner 0.25 µM)", "relative viability", 0.909),
    ("O=c1[nH]c2ccccc2n1C1CCN(CCCC(c2ccc(F)cc2)c2ccc(F)cc2)CC1 [Pimozide] + COc1cccc2cc(-c3nc([C@H]4CC[C@H](C(=O)O)CC4)n4ncnc(N)c34)[nH]c12 [OSI-027] (partner 0.5 µM)", "relative viability", 0.584),
    ("O=c1[nH]c2ccccc2n1C1CCN(CCCC(c2ccc(F)cc2)c2ccc(F)cc2)CC1 [Pimozide] + O=C(CCCCCCC(=O)Nc1ccccc1)NO [Vorinostat] (partner 1 µM)", "relative viability", 0.72),
]

---

Each entry below lists one item and its recorded relative viability value.
test system: IA-LM; assay: relative viability (nuclei count vs DMSO), 5 days (fraction); higher = more cells survive; details: first compound 500 µM
Quantity name: relative viability

# Compound, Assay result
data = [
    ("O=C(O)CCCCC(CCSCc1ccccc1)SCc1ccccc1 (centres undefined) [CPI-613] + CS(=O)(=O)CCNCc1ccc(-c2ccc3ncnc(Nc4ccc(OCc5cccc(F)c5)c(Cl)c4)c3c2)o1 [Lapatinib] (partner 2 µM)", 0.208),
    ("O=C(O)CCCCC(CCSCc1ccccc1)SCc1ccccc1 (centres undefined) [CPI-613] + C[C@]1(O)C[C@@H](c2nc(-c3ccc4ccc(-c5ccccc5)nc4c3)c3c(N)nccn32)C1 [Linsitinib] (partner 1 µM)", 0.358),
    ("O=C(O)CCCCC(CCSCc1ccccc1)SCc1ccccc1 (centres undefined) [CPI-613] + O=C(c1cc(Cc2n[nH]c(=O)c3ccccc23)ccc1F)N1CCN(C(=O)C2CC2)CC1 [Olaparib] (partner 8 µM)", 0.656),
    ("O=C(O)CCCCC(CCSCc1ccccc1)SCc1ccccc1 (centres undefined) [CPI-613] + Cc1nc(NC(=O)N2CCC[C@H]2C(N)=O)sc1-c1ccnc(C(C)(C)C(F)(F)F)c1 [Alpelisib] (partner 2 µM)", 0.0122),
]

---

system: NCI-H358; assay: relative viability (nuclei count vs DMSO), 5 days (fraction); higher = more cells survive; conditions: first compound 0.006325 µM
Each record here notes measured relative viability.
Quantity name: relative viability

# Molecule, Quantity name, Assay result
data = [
    ("CC(=O)O[C@@]12CO[C@@H]1C[C@H](O)[C@@]1(C)C(=O)[C@H](O)C3=C(C)[C@@H](OC(=O)[C@H](O)[C@@H](NC(=O)OC(C)(C)C)c4ccccc4)C[C@@](O)([C@@H](OC(=O)c4ccccc4)[C@H]21)C3(C)C [Docetaxel] + Nc1nc2[nH]cc(CCc3ccc(C(=O)N[C@@H](CCC(=O)O)C(=O)O)cc3)c2c(=O)[nH]1 [Pemetrexed] (partner 0.2 µM)", "relative viability", 0.155),
    ("CC(=O)O[C@@]12CO[C@@H]1C[C@H](O)[C@@]1(C)C(=O)[C@H](O)C3=C(C)[C@@H](OC(=O)[C@H](O)[C@@H](NC(=O)OC(C)(C)C)c4ccccc4)C[C@@](O)([C@@H](OC(=O)c4ccccc4)[C@H]21)C3(C)C [Docetaxel] + O=C(CCCCCCC(=O)Nc1ccccc1)NO [Vorinostat] (partner 1 µM)", "relative viability", 0.112),
]
